Target: KRas G12D/Q61H double mutant (Homo sapiens (Human), UniProt P01116, G12D/Q61H)
Sequence (P01116-2 other isoform, or with tags, fused parts or gaps G12D/Q61H): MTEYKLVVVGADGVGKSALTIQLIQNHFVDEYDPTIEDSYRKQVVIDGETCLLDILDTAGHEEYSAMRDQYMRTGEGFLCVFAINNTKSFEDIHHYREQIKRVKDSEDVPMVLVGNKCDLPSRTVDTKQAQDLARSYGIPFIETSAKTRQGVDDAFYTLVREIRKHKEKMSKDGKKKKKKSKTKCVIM
Test: Ras GTP binding domain inhibition assay (labeled GTP)
Conditions: 20 μM compound; read-out: % Inhibition at 20 μM KRas G12D Q61H
Method: Buffer-I: • 50 mM Tris, pH 7.5 • 150 mM NaCl (optional) • 1 mM MgCl2 • 1 mM DTT. • KRas G12D mutant protein was expressed as a His-tagged protein. […] Then 22 μl of Cy3-GTP or Cy5-GTP was added to each well. The labeled GTP was incubated for 45 min. at room temperature. • Following GTP incubation, wells were washed 3× in Buffer-I, and 200 μl of Buffer-I were added to each well. • Following washes, the amount of bound labeled-GTP was measured with an Eppendorf AF2200 plate reader. […]
Please provide measured inhibition at 20 µM for the entries that follow.

Quick check: inhibition at 20 µM of COc1cc(-c2csc3c(O)nc(-c4ccccn4)nc23)cnc1C(F)(F)F [drawing 2884] ?
51 to 75%

Return reported inhibition at 20 µM; argument: O=C(c1csc2c(O)nc(-c3ccccn3)nc12)N1CCC(N2CCCC2=O)CC1 [drawing 2679]
51 to 75%

Return reported inhibition at 20 µM; argument: O=C(Nc1nnc(-c2ccccn2)[nH]1)c1ccc(Oc2ccccc2)cc1
25 to 50%

Dear colleague, I am looking for the recorded inhibition at 20 µM of the following compound: O=C(c1csc2c(O)nc(-c3ccccn3)nc12)N1CCN(c2ccncc2)CC1 [drawing 2681]
51 to 75%

// lookup inhibition at 20 µM for N#Cc1ccc(COCC(=O)Nc2ccnc(-c3ccccn3)n2)cc1 [drawing 2796]
0%

I would be grateful if you could share the reported inhibition at 20 µM for COc1cccc(OCCn2c(CN3CCCCC3)nc3ccccc32)c1 [drawing 3032] .
25 to 50%

Please give the measured inhibition at 20 µM for this compound: CC1CN(c2ccccc2)CCN1C(=O)c1csc2c(O)nc(-c3ccccn3)nc12 (centres unmarked) [drawing 2761]
51 to 75%

Quick check: inhibition at 20 µM of CC1CCN(C(=O)c2csc3c(O)nc(N)nc23)CC1 [drawing 2658] ?
1 to 25%

What does the record list as inhibition at 20 µM for O=C(CCc1nc2ccccc2s1)Nc1nnc(-c2ccccn2)[nH]1 ?
25 to 50%

Any idea what inhibition at 20 µM was measured for O=C(NCCc1ccnc(O)n1)c1csc2nc(-c3ccccn3)nc(N3CCOCC3)c12 [drawing 2898] ?
1 to 25%

If you can, please state the reported inhibition at 20 µM value of Cn1ccnc1COc1ccc(C(=O)Nc2nnc(-c3ccccn3)[nH]2)cc1 .
25 to 50%

Field request: inhibition at 20 µM | item: C=CCc1ccc(OCCn2c(CN3CCOCC3)nc3ccccc32)c(OC)c1
25 to 50%

So what does the record say about inhibition at 20 µM for CC(C)N(Cc1ccccn1)Cc1nc2ccccc2n1C(F)F ?
1 to 25%

Find the recorded inhibition at 20 µM belonging to CCOC(=O)NC1CCN(C(=O)c2csc3c(O)nc(-c4ccccn4)nc23)CC1 [drawing 2685] and report it.
51 to 75%

State the recorded inhibition at 20 µM for this entry: N#Cc1ccccc1CN1CCN(c2cccc(C(F)(F)F)c2)CC1
1 to 25%

Item under review: Cc1ccc(C(C)C)cc1OS(=O)(=O)N1CCc2ccccc2C1 . Reported inhibition at 20 µM?
1 to 25%

Give the measured inhibition at 20 µM of CC(c1nc(C(C)(C)C)no1)N(C)CC12CC3CC(CC(C3)C1)C2 (centres unmarked) .
25 to 50%

What value of measured inhibition at 20 µM is listed for O=C(Nc1nnc(-c2ccccn2)[nH]1)c1ccc(Cn2cncn2)cc1 ?
25 to 50%

Fill blank: measured inhibition at 20 µM of the compound Cc1cc(C)n2nc(CC(=O)N(Cc3ccccc3F)C3CC3)nc2n1 is ____.
25 to 50%

Reported inhibition at 20 µM for COc1cc(C)c(-c2csc3c(O)nc(-c4ccccn4)nc23)cc1C [drawing 2869] : what is it?
25 to 50%
